ASSAY NAME: Half life of the compound in presence of glutathione
Assay type: physicochemical
REPORTED CONDITIONS: gsh
I'd appreciate it if you could supply half-life values for the items below.
Write down the value, and be sure its unit follows.

QUERY: Determine from records and report half-life for `CCCCCCCCCCN(N=O)c1cccc(N(CCCCCCCCCC)N=O)c1[N+](=O)[O-]`
RESULT: 108 h

QUERY: Return half-life (reported value) for this molecule: `CCCCCCCCCN(N=O)c1ccc([N+](=O)[O-])c(N(CCCCCCCCC)N=O)c1`
RESULT: 109 h

QUERY: Give a short answer stating reported half-life for `CCCCCCCCN(N=O)c1cccc(N(CCCCCCCC)N=O)c1[N+](=O)[O-]` .
RESULT: 123 h

QUERY: # return recorded half-life for input `CCCCCCN(N=O)c1ccc([N+](=O)[O-])c(N(CCCCCC)N=O)c1`
RESULT: 126 h

----------
ASSAY NAME: Toxicity in HASMC assessed as cell viability at 0.1 uM after 96 hrs by MTT assay relative to control
Format: cell-based
REPORTED CONDITIONS: human, HASMC cells; read-out: Activity
MEASURED PARAMETER: viability at 96 h, 0.1 µM (%)
Please state the figure in %; there is no need to write the unit.

QUERY: Complete the entry with viability at 96 h, 0.1 µM for `CCCCCCCCCCNc1ccc([N+](=O)[O-])c(NCCCCCCCCCC)c1`
RESULT: 89

QUERY: Tell me viability at 96 h, 0.1 µM reported for `CCCCCCCCCNc1ccc([N+](=O)[O-])c(NCCCCCCCCC)c1`
RESULT: 87

QUERY: Supply recorded viability at 96 h, 0.1 µM for `CCCCCCCNc1cccc(NCCCCCCC)c1[N+](=O)[O-]` here.
RESULT: 81.6

QUERY: Report viability at 96 h, 0.1 µM, nothing else, for this compound: `CCCCCCNc1cccc(NCCCCCC)c1[N+](=O)[O-]`
RESULT: 82.2

QUERY: Assign viability at 96 h, 0.1 µM to the following record: `CCCCCCCCNc1cccc(NCCCCCCCC)c1[N+](=O)[O-]`
RESULT: 86.2

QUERY: Identify the reported viability at 96 h, 0.1 µM for the following entry. `CCCCCCCNc1ccc([N+](=O)[O-])c(NCCCCCCC)c1`
RESULT: 88.3

QUERY: Return value of viability at 96 h, 0.1 µM for input `CCCCCCCCCCNc1cccc(NCCCCCCCCCC)c1[N+](=O)[O-]` , no commentary.
RESULT: 76.8

QUERY: Tell me its viability at 96 h, 0.1 µM given `CCCCCCCCNc1ccc([N+](=O)[O-])c(NCCCCCCCC)c1` as the entry.
RESULT: 84.6

QUERY: # return recorded viability at 96 h, 0.1 µM for input `CCCCCCNc1ccc([N+](=O)[O-])c(NCCCCCC)c1`
RESULT: 85.1

QUERY: Using the record for `CCCCCCCCCNc1cccc(NCCCCCCCCC)c1[N+](=O)[O-]` , state its measured viability at 96 h, 0.1 µM.
RESULT: 82

----------
ASSAY NAME: Half life of the compound
Assay type: physicochemical
Sorting guide: entries reporting half-life beneath 80 h go in the criterion met pile, the rest go in the criterion not met pile.

QUERY: Field: below-cutoff. Rule: recorded half-life strictly less than 80 h. Subject: `CCCCCCN(N=O)c1ccc([N+](=O)[O-])c(N(CCCCCC)N=O)c1`
RESULT: criterion not met

QUERY: Does the reported half-life of `CCCCCCCCN(N=O)c1ccc([N+](=O)[O-])c(N(CCCCCCCC)N=O)c1` stay below 80 h?
RESULT: criterion not met

QUERY: Could you please tell me whether half-life recorded for `CCCCCCCN(N=O)c1cccc(N(CCCCCCC)N=O)c1[N+](=O)[O-]` is less than 80 h?
RESULT: criterion not met

QUERY: Answer whether the compound `CCCCCCCCCCN(N=O)c1cccc(N(CCCCCCCCCC)N=O)c1[N+](=O)[O-]` has half-life strictly less than 80 h
RESULT: criterion met
